TARGET_SYSTEM: human ErbB2, full length, on cells (human, UniProt P04626 23-1255)
TEST_DESCRIPTION: cell-based or functional assay
VALUE_TYPE: N2 % Inhibition @40 µg/ml, BT474 cell proliferation (%)
API: value field is a number in %; no unit string.

- BINDER: "monoclonal antibody 1.18.1 (antibody, V domains shown, Fully human IgG (gamma/kappa) from a XenoMouse XM3B-3 hybridoma; constant regions not tied to it) VH: EVQLVESGGGLVKPGGSLRLSCAASGFTFSSYSMNWVRQAPGKGLEWVSSISSSSSYIYYADSVKGRFTISRDNAKNSLYLQMNSLSAEDTAVYSCARGGDGYNYYYFDYWGQGTLVTVSS VL: DIVMTQSPGSLVVSLGERATITCKSSQSVFFRSNNKNCLAWYQQRPGQSPNLLIYWASTRESGVPDRFSGSGSGTDFTLTISSLQAEDVAVYYCQQYFGSPFTFGPGTKVDIK"
  QUANTITATIVE_RESULT: 39
- BINDER: "monoclonal antibody 1.96 (antibody, V domains shown, Fully human IgG (gamma/kappa) from a XenoMouse XM3B-3 hybridoma; constant regions not tied to it) VH: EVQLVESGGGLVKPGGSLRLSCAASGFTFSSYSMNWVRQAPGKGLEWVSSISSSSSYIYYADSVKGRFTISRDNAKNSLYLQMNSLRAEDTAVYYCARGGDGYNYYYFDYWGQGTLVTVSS VL: DIVMTQSPDSLAVSLGERATITCKSSQSVFFRSNNKNCLAWYQQRPGQPPNLLFYWASTRESGVPDRFSGSGSGTDFTLTISSLQAEDVAVYYCQQYFGSPFTLGPGTKVDIK"
  QUANTITATIVE_RESULT: 29

Here's the next entry for you.
Value of N2 % Inhibition @40 µg/ml, BT474 cell proliferation reported for the binder monoclonal antibody 1.39 (antibody, V domains shown, Fully human IgG (gamma/kappa) from a XenoMouse XM3B-3 hybridoma; constant regions not tied to it; also called 1.39.1; 1.39.2) VH: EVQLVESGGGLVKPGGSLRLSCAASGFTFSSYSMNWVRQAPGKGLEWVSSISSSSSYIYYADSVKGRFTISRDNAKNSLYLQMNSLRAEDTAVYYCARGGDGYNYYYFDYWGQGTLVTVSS VL: DIVMTQSPDSLAVSLGERATITCKSSQSVFFRSNNKNCLAWYQQRPGQPPNLLIYWASSRESGVPDRFSGSGSGTDFALTISSLQTEDVAVYYCQQYFGSPFTFGPGTKVDIK is 40
